target: UniProt:P0DTD1; assay: biochemical; details: read-out: %inhibition
Counter-ions that a name gives are not always drawn.

# compound, targetDesc, inhibition at 100 µM
rows = [
    ("CC[C@H](C)[C@H](N)C(=O)O", "UniProt:P0DTD1", "0%"),
    ("CCOC(=O)c1cncn1[C@H](C)c1ccccc1 [Etomidate]", "UniProt:P0DTD1", "8.82%"),
    ("COCCCC/C(=N\\OCCN)c1ccc(C(F)(F)F)cc1 [Fluvoxamine maleate]", "UniProt:P0DTD1", "0%"),
    ("C/C=C1\\[C@H]2C=C(C)C[C@]1(N)c1ccc(=O)[nH]c1C2 [(-)-Huperzine A (HupA)]", "UniProt:P0DTD1", "0%"),
    ("C[C@]1(c2nc3c(C(N)=O)cccc3[nH]2)CCCN1", "UniProt:P0DTD1", "54.3%"),
    ("CC(C)(C)CC(C)(C)c1ccc(O)c(Cc2ccc(Cl)cc2Cl)c1", "UniProt:P0DTD1", "0%"),
    ("O=c1c(-c2ccc(O)cc2)coc2cc(O)cc(O)c12", "UniProt:P0DTD1", "1.56%"),
    ("CC(=O)O[C@]1(C(C)=O)CC[C@H]2[C@@H]3C[C@H](C)C4=CC(=O)CC[C@]4(C)[C@H]3CC[C@@]21C [Medroxyprogesterone acetate]", "UniProt:P0DTD1", "26.1%"),
    ("OC(CCCN1CCCCC1)(c1ccccc1)c1ccccc1 [Diphenidol HCl]", "UniProt:P0DTD1", "3%"),
    ("c1ccc2c(c1)Nc1ccccc1S2", "UniProt:P0DTD1", "18.2%"),
    ("CC(C)C[C@H](NC(=O)CNC(=O)[C@H](Cc1ccc(O)cc1)NC(=O)[C@H](CO)NC(=O)[C@H](Cc1c[nH]c2ccccc12)NC(=O)[C@H](Cc1cnc[nH]1)NC(=O)[C@@H]1CCC(=O)N1)C(=O)N[C@@H](CCCNC(=N)N)C(=O)N1CCC[C@H]1C(=O)NCC(N)=O [Gonadorelin Acetate]", "UniProt:P0DTD1", "0%"),
    ("OCC(O)CN1CCN(c2ccccc2)CC1 (stereo not shown)", "UniProt:P0DTD1", "20.7%"),
    ("CCC(=O)O[C@@H](O[P@](=O)(CCCCc1ccccc1)CC(=O)N1C[C@H](C2CCCCC2)C[C@H]1C(=O)O)C(C)C [Fosinopril Sodium]", "UniProt:P0DTD1", "0%"),
    ("CCCCOC(=O)c1ccc(N)cc1", "UniProt:P0DTD1", "2.1%"),
    ("CNC(=O)[C@H](Cc1c[nH]c2ccccc12)NC(=O)[C@@H](CC(=O)NO)CC(C)C", "UniProt:P0DTD1", "21%"),
    ("O=C(c1cc(Cc2n[nH]c(=O)c3ccccc23)ccc1F)N1CCN(C(=O)C2CC2)CC1", "UniProt:P0DTD1", "20.2%"),
]
